Assayed Target: T1, APJ receptor (human, UniProt P35414 1-380)
T1 sequence (looked up): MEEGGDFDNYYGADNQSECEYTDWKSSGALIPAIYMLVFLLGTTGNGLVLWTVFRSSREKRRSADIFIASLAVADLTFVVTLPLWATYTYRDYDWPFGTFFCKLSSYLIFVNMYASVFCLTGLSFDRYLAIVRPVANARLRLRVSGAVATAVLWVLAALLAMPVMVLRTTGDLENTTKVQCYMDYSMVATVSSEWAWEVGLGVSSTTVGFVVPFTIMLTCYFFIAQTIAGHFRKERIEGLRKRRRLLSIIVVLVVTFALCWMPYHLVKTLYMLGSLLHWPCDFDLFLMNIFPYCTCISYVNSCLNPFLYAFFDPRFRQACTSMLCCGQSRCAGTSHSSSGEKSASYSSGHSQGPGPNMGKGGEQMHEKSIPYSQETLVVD
Experiment: cell-based or functional assay
[ ]: non-standard residue; d: D form. pGlu = O=C1CC[C@@H](C(=O)O)N1; dNle = CCCC[C@@H](N)C(=O)O
Readout Name: hAPJ Ca^2+ Flux EC50

H-RPRL[dA]HKGP[dNle][dF]-OH (SMILES CCCC[C@@H](NC(=O)[C@@H]1CCCN1C(=O)CNC(=O)[C@H](CCCCN)NC(=O)[C@H](Cc1c[nH]cn1)NC(=O)[C@@H](C)NC(=O)[C@H](CC(C)C)NC(=O)[C@H](CCCNC(=N)N)NC(=O)[C@@H]1CCCN1C(=O)[C@@H](N)CCCNC(=N)N)C(=O)N[C@H](Cc1ccccc1)C(=O)O) [H-R-P-R-L-a-H-K-G-P-nle-f-OH]: 1.4 nM

We now examine a further binder.
## Input Need hAPJ Ca^2+ Flux EC50 of [pGlu]RPRL[dA]HKGP[dNle][dR][dF]-OH (SMILES CCCC[C@@H](NC(=O)[C@@H]1CCCN1C(=O)CNC(=O)[C@H](CCCCN)NC(=O)[C@H](Cc1c[nH]cn1)NC(=O)[C@@H](C)NC(=O)[C@H](CC(C)C)NC(=O)[C@H](CCCNC(=N)N)NC(=O)[C@@H]1CCCN1C(=O)[C@H](CCCNC(=N)N)NC(=O)[C@@H]1CCC(=O)N1)C(=O)N[C@H](CCCNC(=N)N)C(=O)N[C@H](Cc1ccccc1)C(=O)O) [pE-R-P-R-L-a-H-K-G-P-nle-r-f-OH] , thanks.
## Output 922 nM

Taken from patent US10005829B2.
